The measured values listed here are drawn from patent US20160280743A1.

Documented MIC across a set of molecules
Tested on: P. aeruginosa PAO1
Assay: microbe, parasite or virus in culture
Conditions: Pseudomonas aeruginosa, PAO1, 16 h, read-out: MIC PAO1 —
property: MIC (µg/mL)

molecule | property | unit_abbreviation | prefix_operator | test_result
CN[C@H](CC(C)C)C(=O)N[C@H]1C(=O)N[C@@H](CC(N)=O)C(=O)N[C@H]2C(=O)N[C@H]3C(=O)N[C@H](C(=O)N[C@H](C(=O)O)c4cc(O)cc(O)c4-c4cc3ccc4O)[C@H](O)c3ccc(c(Cl)c3)Oc3cc2cc(c3O[C@@H]2O[C@H](CO)[C@@H](O)[C@H](O)[C@H]2O[C@H]2C[C@](C)(N)[C@H](O)[C@H](C)O2)Oc2ccc(cc2Cl)[C@H]1O | MIC | µg/mL | = | 2050
CC[C@H]1OC(=O)[C@H](C)[C@@H](O[C@H]2C[C@@](C)(OC)[C@@H](O)[C@H](C)O2)[C@H](C)[C@@H](O[C@@H]2O[C@H](C)C[C@H](N(C)C)[C@H]2O)[C@](C)(O)C[C@@H](C)CN(C)[C@H](C)[C@@H](O)[C@]1(C)O | MIC | µg/mL | = | 128
C[C@H]1COc2c(N3CCN(C)CC3)c(F)cc3c(=O)c(C(=O)O)cn1c23 | MIC | µg/mL | = | 0.125
CCn1cc(C(=O)O)c(=O)c2ccc(C)nc21 | MIC | µg/mL | = | 64
O=C(N[C@H](CO)[C@H](O)c1ccc([N+](=O)[O-])cc1)C(Cl)Cl | MIC | µg/mL | = | 8
CO[C@H]1/C=C/O[C@@]2(C)Oc3c(C)c(O)c4c(O)c(c(/C=N/N5CCN(C)CC5)c(O)c4c3C2=O)NC(=O)/C(C)=C\C=C\[C@H](C)[C@H](O)[C@@H](C)[C@@H](O)[C@@H](C)[C@H](OC(C)=O)[C@@H]1C | MIC | µg/mL | = | 16
CC1(C)S[C@@H]2[C@H](NC(=O)C(C(=O)O)c3ccccc3)C(=O)N2[C@H]1C(=O)O (some centres unmarked) | MIC | µg/mL | = | 32
Cc1onc(-c2ccccc2Cl)c1C(=O)N[C@@H]1C(=O)N2[C@@H]1SC(C)(C)[C@@H]2C(=O)O | MIC | µg/mL | > | 2050
CO[C@@H]1[C@@H](OC(N)=O)[C@@H](O)[C@H](Oc2ccc3c(O)c(NC(=O)c4ccc(O)c(CC=C(C)C)c4)c(=O)oc3c2C)OC1(C)C | MIC | µg/mL | = | 512
CN(C)[C@@H]1C(O)=C(C(N)=O)C(=O)[C@@]2(O)C(O)=C3C(=O)c4c(O)cccc4[C@@](C)(O)[C@H]3C[C@@H]12 | MIC | µg/mL | = | 4
NCC[C@H](O)C(=O)N[C@@H]1C[C@H](N)[C@@H](O[C@H]2O[C@H](CN)[C@@H](O)[C@H](O)[C@H]2O)[C@H](O)[C@H]1O[C@H]1O[C@H](CO)[C@@H](O)[C@H](N)[C@H]1O | MIC | µg/mL | = | 1

###

Test system: P. aeruginosa PAO1, PAO1-Pore, Δ3, Δ3-Pore
Experiment: Fold MIC change between P. aeruginosa strains (OM barrier, efflux)
Assay type: cell-based, Pseudomonas aeruginosa
Conditions: P. aeruginosa
# strict inequality: Fold MIC change, Efflux, PAO1/Δ3 < 8 fold yields label 1, everything else yields label 0

molecule | assayed_target | assigned_category
CN(C)[C@@H]1C(O)=C(C(N)=O)C(=O)[C@@]2(O)C(O)=C3C(=O)c4c(O)cccc4[C@@](C)(O)[C@H]3C[C@@H]12 | P. aeruginosa PAO1, PAO1-Pore, Δ3, Δ3-Pore | label 1
CN[C@H](CC(C)C)C(=O)N[C@H]1C(=O)N[C@@H](CC(N)=O)C(=O)N[C@H]2C(=O)N[C@H]3C(=O)N[C@H](C(=O)N[C@H](C(=O)O)c4cc(O)cc(O)c4-c4cc3ccc4O)[C@H](O)c3ccc(c(Cl)c3)Oc3cc2cc(c3O[C@@H]2O[C@H](CO)[C@@H](O)[C@H](O)[C@H]2O[C@H]2C[C@](C)(N)[C@H](O)[C@H](C)O2)Oc2ccc(cc2Cl)[C@H]1O | P. aeruginosa PAO1, PAO1-Pore, Δ3, Δ3-Pore | label 1
CC[C@H]1OC(=O)[C@H](C)[C@@H](O[C@H]2C[C@@](C)(OC)[C@@H](O)[C@H](C)O2)[C@H](C)[C@@H](O[C@@H]2O[C@H](C)C[C@H](N(C)C)[C@H]2O)[C@](C)(O)C[C@@H](C)CN(C)[C@H](C)[C@@H](O)[C@]1(C)O | P. aeruginosa PAO1, PAO1-Pore, Δ3, Δ3-Pore | label 0
NCC[C@H](O)C(=O)N[C@@H]1C[C@H](N)[C@@H](O[C@H]2O[C@H](CN)[C@@H](O)[C@H](O)[C@H]2O)[C@H](O)[C@H]1O[C@H]1O[C@H](CO)[C@@H](O)[C@H](N)[C@H]1O | P. aeruginosa PAO1, PAO1-Pore, Δ3, Δ3-Pore | label 1
CC1(C)S[C@@H]2[C@H](NC(=O)C(C(=O)O)c3ccccc3)C(=O)N2[C@H]1C(=O)O (stereo partly shown) | P. aeruginosa PAO1, PAO1-Pore, Δ3, Δ3-Pore | label 0
CO[C@@H]1[C@@H](OC(N)=O)[C@@H](O)[C@H](Oc2ccc3c(O)c(NC(=O)c4ccc(O)c(CC=C(C)C)c4)c(=O)oc3c2C)OC1(C)C | P. aeruginosa PAO1, PAO1-Pore, Δ3, Δ3-Pore | label 0

###

Test system: E. coli BW 25113 (WT)
Experiment: microbe, parasite or virus in culture
Conditions: Escherichia coli, 16 h, read-out: MIC BW 25113 (WT) —
Field 'label' (enum: Y / N). Set to Y when MIC is strictly under 4 µg/mL; else N.

chemical_string | assigned_category
Nc1ccc2cc3ccc(N)cc3nc2c1 | N
[H]/N=C(/N)N[C@H]1[C@H](O)[C@@H](O)[C@H](O[C@@H]2O[C@@H](C)[C@](O)(C=O)[C@H]2O[C@@H]2O[C@@H](CO)[C@H](O)[C@@H](O)[C@@H]2NC)[C@@H](N/C(N)=N\[H])[C@@H]1O | Y
CO[C@@H]1[C@@H](OC(N)=O)[C@@H](O)[C@H](Oc2ccc3c(O)c(NC(=O)c4ccc(O)c(CC=C(C)C)c4)c(=O)oc3c2C)OC1(C)C | N
CN[C@H](CC(C)C)C(=O)N[C@H]1C(=O)N[C@@H](CC(N)=O)C(=O)N[C@H]2C(=O)N[C@H]3C(=O)N[C@H](C(=O)N[C@H](C(=O)O)c4cc(O)cc(O)c4-c4cc3ccc4O)[C@H](O)c3ccc(c(Cl)c3)Oc3cc2cc(c3O[C@@H]2O[C@H](CO)[C@@H](O)[C@H](O)[C@H]2O[C@H]2C[C@](C)(N)[C@H](O)[C@H](C)O2)Oc2ccc(cc2Cl)[C@H]1O | N
CC[C@H]1OC(=O)[C@H](C)[C@@H](O[C@H]2C[C@@](C)(OC)[C@@H](O)[C@H](C)O2)[C@H](C)[C@@H](O[C@@H]2O[C@H](C)C[C@H](N(C)C)[C@H]2O)[C@](C)(O)C[C@@H](C)C(=O)[C@H](C)[C@@H](O)[C@]1(C)O | N
Cc1onc(-c2ccccc2Cl)c1C(=O)N[C@@H]1C(=O)N2[C@@H]1SC(C)(C)[C@@H]2C(=O)O | N
CC1(C)S[C@@H]2[C@H](NC(=O)[C@H](N)c3ccccc3)C(=O)N2[C@H]1C(=O)O | N
CCC[C@@H]1C[C@@H](C(=O)N[C@@H]([C@H]2O[C@H](SC)[C@H](O)[C@@H](O)[C@H]2O)[C@@H](C)O)N(C)C1 | N
NCC[C@H](O)C(=O)N[C@@H]1C[C@H](N)[C@@H](O[C@H]2O[C@H](CN)[C@@H](O)[C@H](O)[C@H]2O)[C@H](O)[C@H]1O[C@H]1O[C@H](CO)[C@@H](O)[C@H](N)[C@H]1O | Y
CC[C@H]1OC(=O)[C@H](C)[C@@H](O[C@H]2C[C@@](C)(OC)[C@@H](O)[C@H](C)O2)[C@H](C)[C@@H](O[C@@H]2O[C@H](C)C[C@H](N(C)C)[C@H]2O)[C@](C)(O)C[C@@H](C)CN(C)[C@H](C)[C@@H](O)[C@]1(C)O | Y
CN(C)[C@@H]1C(O)=C(C(N)=O)C(=O)[C@@]2(O)C(O)=C3C(=O)c4c(O)cccc4[C@@](C)(O)[C@H]3C[C@@H]12 | Y
O=C(N[C@H](CO)[C@H](O)c1ccc([N+](=O)[O-])cc1)C(Cl)Cl | Y
CCn1cc(C(=O)O)c(=O)c2ccc(C)nc21 | N
